Values were extracted from the supplement of paper PMC9732359.

assayComment: protein stability index of a GFP-peptide fusion (yeast GPS) (PSI 1-4); higher = more stable; sorted into four equal gates, so the index is relative within each strain
experimentalSetup: san1∆
Reported values of protein stability index for individual entries
Give the figure by itself; no unit, no explanation.

Use the examples below as a reference point.
>>> recordednumber("PLPHRVQKSTKTFSYKR [RPL20A]")
2.63
>>> recordednumber("DKRFSGSLKLPNCPRPN [RPL1A]")
2.94
>>> recordednumber("PYAIIKGKARLGTLVNQ [RPL8B]")
1.28

Incoming: Fill in: protein stability index of SKGYVKTQFSWQYYYYT [RPS10A] is ___
Outgoing: 2.76

Incoming: Fill in: protein stability index of RGRGRGRGRGRGRPPKA [SNF2] is ___
Outgoing: 3.37

Incoming: Fill in: protein stability index of FQDTLYKKIPLLGPTLE [QCR10] is ___
Outgoing: 2.47

Incoming: Fill in: protein stability index of SGYVRSRGESDDSLNRL [RPS21A] is ___
Outgoing: 2.17

Incoming: Fill in: protein stability index of EEEKSVDASPNDVTRRT [CSL4] is ___
Outgoing: 3.27

Incoming: Fill in: protein stability index of VTEETTKQIQSVRIDGR [SIR4] is ___
Outgoing: 2.83

Incoming: Fill in: protein stability index of IPAGIYWYWWKNGNEYN [QCR8] is ___
Outgoing: 1.77

Incoming: Fill in: protein stability index of EYIFEAHEIIKREEKAM [CDC53] is ___
Outgoing: 2.54

Incoming: Fill in: protein stability index of DDLQKFNGIENQSAYEW [ISW2] is ___
Outgoing: 3.29

Incoming: Fill in: protein stability index of KIFIKDPKFVNSLLAKL [YML103C/NUP188] is ___
Outgoing: 1.72

Incoming: Fill in: protein stability index of VVILARAKALGIKVTNP [RPL32] is ___
Outgoing: 2.55

====

assayComment: protein stability index of a GFP-peptide fusion (yeast GPS) (PSI 1-4); higher = more stable; sorted into four equal gates, so the index is relative within each strain
experimentalSetup: doa10∆
reportedProperty: protein stability index
Give the figure by itself; no unit, no explanation.

Use the examples below as a reference point.
>>> recordednumber("LEDFENFKGLAKEKERM [YIL149C/MLP2]")
3.41
>>> recordednumber("PVIGVFQKFLTGHPKGA [FAS2]")
3.34
>>> recordednumber("NSIESKNLSLQTGTKPV [COR1]")
2.72
>>> recordednumber("ELFKDYKPGSITLENIT [MED1]")
2.53

Incoming: Fill in: protein stability index of NKIKLNILKILSSLILK [SRB8] is ___
Outgoing: 1.79

Incoming: Fill in: protein stability index of VLYYRDARSSRNFSLAI [PRE4] is ___
Outgoing: 2.85

Incoming: Fill in: protein stability index of EYEKRNHGGSLGKYDLT [SRP68] is ___
Outgoing: 2.81

Incoming: Fill in: protein stability index of DNIDEKVVKAIRIYFTE [NUT1] is ___
Outgoing: 3.12

Incoming: Fill in: protein stability index of TPSTSSNGEFIPHIFYS [CSE2] is ___
Outgoing: 2.36

Incoming: Fill in: protein stability index of EISLKAHCILGIGGDHA [RPC40] is ___
Outgoing: 1.16

Incoming: Fill in: protein stability index of TLGVVGKSEKLSLLLVE [SKI6] is ___
Outgoing: 2.8

Incoming: Fill in: protein stability index of KIAERSLLLKNYLNDMH [SKP1] is ___
Outgoing: 2.55

Incoming: Fill in: protein stability index of NNSLSYHSGRLLIQGPK [ITC1] is ___
Outgoing: 2.45

Incoming: Fill in: protein stability index of NLVSLLIIVTRKNYMHV [YML031W/NDC1] is ___
Outgoing: 1.21

====

Reported values of protein stability index for individual entries
assayComment: protein stability index of a GFP-peptide fusion (yeast GPS) (PSI 1-4); higher = more stable; sorted into four equal gates, so the index is relative within each strain
experimentalSetup: doa10∆
Give the figure by itself; no unit, no explanation.

Incoming: Fill in: protein stability index of KTVQSMTQRAIQSAESI [SWI3] is ___
Outgoing: 2.5

Incoming: Fill in: protein stability index of APLKALVQEQVREFQRR [BRR2] is ___
Outgoing: 1.26

Incoming: Fill in: protein stability index of DVLKENNDADKGRSYAY [RIP1] is ___
Outgoing: 3.48

Incoming: Fill in: protein stability index of TRIAGVVYHPSNNELVR [RPS8A] is ___
Outgoing: 2.67

Incoming: Fill in: protein stability index of RNVGKTLVNKSTGLKNA [RPS1B] is ___
Outgoing: 2.81

Incoming: Fill in: protein stability index of KDPDVPLVLLQQIPLLC [POP3] is ___
Outgoing: 2.33

Incoming: Fill in: protein stability index of RRVPKELAVENPLAKTM [SEC65] is ___
Outgoing: 2.99

Incoming: Fill in: protein stability index of DTKIDQVNGNIRKVSND [SMC3] is ___
Outgoing: 3.47

====

Reported values of protein stability index for individual entries
assayComment: protein stability index of a GFP-peptide fusion (yeast GPS) (PSI 1-4); higher = more stable; sorted into four equal gates, so the index is relative within each strain
experimentalSetup: pdr5∆
Give the figure by itself; no unit, no explanation.

Use the examples below as a reference point.
>>> recordednumber("HHRIFDSSAHFKGALTI [YMR129W/POM152]")
2.73
>>> recordednumber("QIEKKKICRGRMNTIIT [SIR4]")
3.43
>>> recordednumber("ITSIMDDLALPYQHPPN [ITC1]")
3.34
>>> recordednumber("NEWIKAQEDVPYLLPYI [QCR7]")
2.46
>>> recordednumber("GQLLKDHLIIEPEEEKS [ARP9]")
1.77
>>> recordednumber("DSNTTEILTSVDVLGTH [SIR4]")
2.96

Now for another entry.
Incoming: Fill in: protein stability index of GHIPWHILAVKKMMNTL [SSN2] is ___
Outgoing: 2.85

====

assayComment: protein stability index of a GFP-peptide fusion (yeast GPS) (PSI 1-4); higher = more stable; sorted into four equal gates, so the index is relative within each strain
experimentalSetup: pdr5∆
Decide using protein stability index: a value greater than or equal to 3 is yes (1), a smaller one is no (0).

Please review the entries below; each comes with its answer.
>>> assignedlabel("VPFIIAAMVIMHLMALH [COB]")
"no (0)"
>>> assignedlabel("HRSGKIVVQLNGRLNKC [RPS22A]")
"yes (1)"
>>> assignedlabel("NKGELETQPGCNEEQTL [RPO31]")
"yes (1)"
>>> assignedlabel("DIPLAKALDNACGAFIN [CDC53]")
"yes (1)"
>>> assignedlabel("PPETKLPYPTYWSDKKA [SNF5]")
"no (0)"

Incoming: Confirm if protein stability index reported for the sequence VKKAVTVHSKSRTRAHA [RPL19A] is 3 or above.
Outgoing: yes (1)

Incoming: Confirm if protein stability index reported for the sequence CASIPIAIIKDTSDIIV [RRP46] is 3 or above.
Outgoing: no (0)

Incoming: Confirm if protein stability index reported for the sequence RHSGKVYPITLSTDATS [UBP6] is 3 or above.
Outgoing: no (0)

Incoming: Confirm if protein stability index reported for the sequence QQQQQQQQQQQQQGQIP [SNF5] is 3 or above.
Outgoing: no (0)

Incoming: Confirm if protein stability index reported for the sequence NIQGITKPAIRRLARRG [HHF1] is 3 or above.
Outgoing: yes (1)

====

assayComment: protein stability index of a GFP-peptide fusion (yeast GPS) (PSI 1-4); higher = more stable; sorted into four equal gates, so the index is relative within each strain
experimentalSetup: pdr5∆
Decide using protein stability index: a value greater than or equal to 3 is YES, a smaller one is NO.

Please review the entries below; each comes with its answer.
>>> assignedlabel("CRVCSSHTGLVRKYDLN [RPS29B]")
"NO"
>>> assignedlabel("KNDLFVIWSEDNDEKLI [RPO21]")
"NO"
>>> assignedlabel("KTIQINNEKVVQYLRSV [YML031W/NDC1]")
"YES"

Incoming: Confirm if protein stability index reported for the sequence KLVTYIVKFKQKEEGRS [YLR335W/NUP2] is 3 or above.
Outgoing: YES

Incoming: Confirm if protein stability index reported for the sequence SINISCVQLIKCLVEKS [SWI1] is 3 or above.
Outgoing: NO

Incoming: Confirm if protein stability index reported for the sequence GENAAEKPDNSNHNNLN [SNF2] is 3 or above.
Outgoing: YES

====

assayComment: protein stability index of a GFP-peptide fusion (yeast GPS) (PSI 1-4); higher = more stable; sorted into four equal gates, so the index is relative within each strain
experimentalSetup: pdr5∆
Reported values of protein stability index for individual entries
Give the figure by itself; no unit, no explanation.

>>> recordednumber("SQVKDSVTETESISQTP [SRP68]")
3.02
>>> recordednumber("HPIRLYTRYLDRIYMLF [PRP8]")
1.76
>>> recordednumber("NDNEGKHISASIDNDFS [YAR002W/NUP60]")
3.04

Incoming: Fill in: protein stability index of KQFVVDVLHPNRANVSK [RPS24A] is ___
Outgoing: 3.24

Incoming: Fill in: protein stability index of AASSQVSIVKLDTQLIT [SNF12] is ___
Outgoing: 1.74

Incoming: Fill in: protein stability index of FMKSVIRSREAFSYEQA [DIS3] is ___
Outgoing: 2.73

Incoming: Fill in: protein stability index of VNASVDVDQHGNDNNSD [SWI3] is ___
Outgoing: 3.46
